Tested on: OVCAR-3 ovarian
Experiment: NCI tumour cell line growth inhibition, 48 h
Exercise: for every item that follows, state its recorded TGI.

Return TGI measured with OVCAR-3 ovarian given this compound: c1cc(-c2cn[nH]c2)cc(-c2cn[nH]c2)c1 > 100 µM

Now try CO[C@@]12C[C@H]3[C@@H]([C@@H](O)[C@@H](OC(=O)/C=C/c4ccccc4)[C@@]4(O)C(C)(C)CCC[C@]34C)[C@@H](C)C1=CC(=O)O2 . 11.6 µM

Now try COC(=O)CCc1cccnc1/C=N/O . > 100 µM

Now try COc1ccc(N2C(=O)[C@@H]3[C@H](C2=O)c2[nH]c4ccccc4c2C2CCC(C(C)(C)C)C[C@@H]23)cc1 (some centres undefined) . > 75.7 µM

Now try O=C1c2ccn(CCCCN3CCCCC3)c2C(=O)c2c1c(O)c1ccccc1c2O . 41.9 µM

Now try Cc1ccc(NC(=O)C2C(=O)N(c3ccc(C)c(C)c3)C(=O)/C2=N\NC(N)=S)cc1C (centres undefined) . > 100 µM

Now try CCCCCCNc1nc(N2CCOCC2)c2[nH]c(NCCCCCC)nc2n1 . 3.14 µM

Now try COc1cc(NCC2COc3c(ccc(OC)c3OC)C2=O)c([N+](=O)[O-])cc1OC (centres undefined) . > 100 µM

Now try COc1cc2ccc1OCc1cccc(n1)COc1ccc(cc1OC)C=Nc1ccc(cc1)-c1ccc(cc1)N=C2 . > 100 µM
